# testSystem: T1, human MIC-1 receptor (hGFRAL, GDNF family receptor alpha like), full length (human, UniProt Q6UXV0 19-394)
# T1 sequence (looked up): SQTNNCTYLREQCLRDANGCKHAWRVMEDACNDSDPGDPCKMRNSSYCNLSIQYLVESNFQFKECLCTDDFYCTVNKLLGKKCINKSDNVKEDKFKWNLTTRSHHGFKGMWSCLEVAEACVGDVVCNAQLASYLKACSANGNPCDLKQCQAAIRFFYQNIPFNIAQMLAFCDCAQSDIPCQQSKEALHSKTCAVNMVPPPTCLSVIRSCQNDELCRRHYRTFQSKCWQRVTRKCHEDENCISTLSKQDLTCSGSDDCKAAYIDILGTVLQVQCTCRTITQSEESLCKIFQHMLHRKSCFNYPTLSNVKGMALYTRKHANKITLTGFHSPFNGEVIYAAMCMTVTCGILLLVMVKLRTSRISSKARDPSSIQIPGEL
# assayName: cell-based or functional assay
readoutKind: pERK EC50 (nM)
Entry rule: numbers only, all in nM.

binder	observedResult
(AEE)5AES-MIC-1-Δ1-3 (ligand) AEEAEEAEEAEEAEEAESGDHCPLGPGRCCRLHTVRASLEDLGWADWVLSPREVQVTMCIGACPSQFRAANMHAQIKTSLHRLKPDTVPAPCCVPASYNPMVLIQKTDTGVSLQTYDDLLAKDCHCI	0.5

With those in mind, consider the next binder.
Ask: For the binder MIC-1(R2A,N3E,A54E) (ligand) AAEGDHCPLGPGRCCRLHTVRASLEDLGWADWVLSPREVQVTMCIGACPSQFREANMHAQIKTSLHRLKPDTVPAPCCVPASYNPMVLIQKTDTGVSLQTYDDLLAKDCHCI , what pERK EC50 (nM) is on record?
Result: 0.3
